Source: paper PMC9482650

target: DLG1_3, Q12959; experiment: holdup assay; set-up: key: below the threshold = too weak to quantify, mostly under pKd 3.1 to 4; details: plain residues with an end cap or a label only (N-terminal biotin on a linker: ado-ado)
Sequence (Q12959 457-571): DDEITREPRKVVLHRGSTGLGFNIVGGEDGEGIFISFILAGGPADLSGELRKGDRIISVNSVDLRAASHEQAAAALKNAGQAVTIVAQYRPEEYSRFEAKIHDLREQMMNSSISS
readoutType: pKd

Answered examples (4):
EVNETDDTKM [KCNJ1, P48048]	below the threshold
QGPVETESVV [SLC45A4, Q5BKX6]	below the threshold
DDPSTAETVL [ABCA7, Q8IZY2]	below the threshold
TSSMRGMDAV [RSRC2, Q7L4I2]	below the threshold

Task: Find the recorded pKd belonging to PLSPEQPTKL [TRIM50, Q86XT4] and report it.
Output: below the threshold

Task: Find the recorded pKd belonging to SKSNFGSEPL [KIF17, Q9P2E2] and report it.
Output: below the threshold

Task: Find the recorded pKd belonging to QSPANIYYKV [EFNB1, P52799] and report it.
Output: below the threshold

Task: Find the recorded pKd belonging to HSGYRLNDYV [CLDN14, O95500] and report it.
Output: below the threshold

Task: Find the recorded pKd belonging to KKAPTNEFYA [SDC4, P31431] and report it.
Output: below the threshold

Task: Find the recorded pKd belonging to DDENIRTSDV [PLEKHA2, Q9HB19] and report it.
Output: below the threshold

Task: Find the recorded pKd belonging to NLSIEKETKL [ASNSD1, Q9NWL6] and report it.
Output: 3.53

Task: Find the recorded pKd belonging to QGLAERISVL [PRKD2, Q9BZL6] and report it.
Output: below the threshold

Task: Find the recorded pKd belonging to YRLAQESGLV [ABCC6, O95255] and report it.
Output: below the threshold

Task: Find the recorded pKd belonging to RHGSCVETSL [TMEM151B, Q8IW70] and report it.
Output: 4.1

Task: Find the recorded pKd belonging to SAAKVLTSMC [GHRHR, Q02643] and report it.
Output: 3.6

Task: Find the recorded pKd belonging to KKMPSIESDV [GRIN2A, Q12879] and report it.
Output: below the threshold

Task: Find the recorded pKd belonging to QKNRKAQEDL [CES3, Q6UWW8] and report it.
Output: below the threshold
